# Format: in vivo, Balb/c nude mice harboring LoVo xenografts
# reportedConditions: Balb/c nude, mouse, plasma, ip, 10 mL/kg/day

molecule	Tmax (h)
CC(C)=CCC[C@](C)(O[C@@H]1O[C@H](CO[C@@H]2O[C@H](CO)[C@@H](O)[C@H](O)[C@H]2O)[C@@H](O)[C@H](O)[C@H]1O)[C@H]1CC[C@]2(C)[C@@H]1[C@H](O)C[C@@H]1[C@@]3(C)CC[C@H](O[C@@H]4O[C@H](CO)[C@@H](O)[C@H](O)[C@H]4O[C@@H]4O[C@H](CO)[C@@H](O)[C@H](O)[C@H]4O)C(C)(C)[C@@H]3CC[C@]12C [Rb1, ginsenoside Rb1]	2
CC(C)=CCC[C@](C)(O[C@@H]1O[C@H](CO)[C@@H](O)[C@H](O)[C@H]1O)[C@H]1CC[C@]2(C)[C@@H]1[C@H](O)C[C@@H]1[C@@]3(C)CC[C@H](O[C@@H]4O[C@H](CO)[C@@H](O)[C@H](O)[C@H]4O[C@@H]4O[C@H](CO)[C@@H](O)[C@H](O)[C@H]4O)C(C)(C)[C@@H]3CC[C@]12C [Rd, ginsenoside Rd]	2
CC(C)=CCC[C@](C)(O[C@@H]1O[C@H](CO[C@@H]2O[C@@H](CO)[C@H](O)[C@H]2O)[C@@H](O)[C@H](O)[C@H]1O)[C@H]1CC[C@]2(C)[C@@H]1[C@H](O)C[C@@H]1[C@@]3(C)CC[C@H](O[C@@H]4O[C@H](CO)[C@@H](O)[C@H](O)[C@H]4O[C@@H]4O[C@H](CO)[C@@H](O)[C@H](O)[C@H]4O)C(C)(C)[C@@H]3CC[C@]12C	2

###

# Format: in vivo, Balb/c nude mice harboring LoVo xenografts
# reportedConditions: Balb/c nude, mouse, plasma, ip, 10 mL/kg
Cmax strictly under 3000 ng/mL means satisfied; at 3000 ng/mL or over means not satisfied.

compound	categoryLabel
CC(C)=CCC[C@](C)(O[C@@H]1O[C@H](CO)[C@@H](O)[C@H](O)[C@H]1O)[C@H]1CC[C@]2(C)[C@@H]1[C@H](O)C[C@@H]1[C@@]3(C)CC[C@H](O)C(C)(C)[C@@H]3[C@@H](O[C@@H]3O[C@H](CO)[C@@H](O)[C@H](O)[C@H]3O)C[C@]12C	satisfied
CC(C)=CCC[C@](C)(O[C@@H]1O[C@H](CO)[C@@H](O)[C@H](O)[C@H]1O)[C@H]1CC[C@]2(C)[C@@H]1[C@H](O)C[C@@H]1[C@@]3(C)CC[C@H](O)C(C)(C)[C@@H]3[C@@H](O[C@@H]3O[C@H](CO)[C@@H](O)[C@H](O)[C@H]3O[C@@H]3O[C@@H](C)[C@H](O)[C@@H](O)[C@H]3O)C[C@]12C	satisfied
CC(C)=CCC[C@](C)(O[C@@H]1O[C@H](CO[C@@H]2O[C@@H](CO)[C@H](O)[C@H]2O)[C@@H](O)[C@H](O)[C@H]1O)[C@H]1CC[C@]2(C)[C@@H]1[C@H](O)C[C@@H]1[C@@]3(C)CC[C@H](O[C@@H]4O[C@H](CO)[C@@H](O)[C@H](O)[C@H]4O[C@@H]4O[C@H](CO)[C@@H](O)[C@H](O)[C@H]4O)C(C)(C)[C@@H]3CC[C@]12C	not satisfied
CC(C)=CCC[C@](C)(O[C@@H]1O[C@H](CO)[C@@H](O)[C@H](O)[C@H]1O)[C@H]1CC[C@]2(C)[C@@H]1[C@H](O)C[C@@H]1[C@@]3(C)CC[C@H](O[C@@H]4O[C@H](CO)[C@@H](O)[C@H](O)[C@H]4O[C@@H]4O[C@H](CO)[C@@H](O)[C@H](O)[C@H]4O)C(C)(C)[C@@H]3CC[C@]12C [Rd, ginsenoside Rd]	not satisfied
CC(C)=CCC[C@](C)(O[C@@H]1O[C@H](CO[C@@H]2O[C@H](CO)[C@@H](O)[C@H](O)[C@H]2O)[C@@H](O)[C@H](O)[C@H]1O)[C@H]1CC[C@]2(C)[C@@H]1[C@H](O)C[C@@H]1[C@@]3(C)CC[C@H](O[C@@H]4O[C@H](CO)[C@@H](O)[C@H](O)[C@H]4O[C@@H]4O[C@H](CO)[C@@H](O)[C@H](O)[C@H]4O)C(C)(C)[C@@H]3CC[C@]12C [Rb1, ginsenoside Rb1]	not satisfied

###

# Format: in vivo, Balb/c nude mice harboring LoVo xenografts
# reportedConditions: Balb/c nude, mouse, plasma, ip, 10 mL/kg/day
readoutType: Tmax (min)

molecule	readoutType	recordedResult
CC(C)=CCC[C@](C)(O[C@@H]1O[C@H](CO)[C@@H](O)[C@H](O)[C@H]1O)[C@H]1CC[C@]2(C)[C@@H]1[C@H](O)C[C@@H]1[C@@]3(C)CC[C@H](O)C(C)(C)[C@@H]3[C@@H](O[C@@H]3O[C@H](CO)[C@@H](O)[C@H](O)[C@H]3O[C@@H]3O[C@@H](C)[C@H](O)[C@@H](O)[C@H]3O)C[C@]12C [Re]	Tmax	10
CC(C)=CCC[C@](C)(O[C@@H]1O[C@H](CO)[C@@H](O)[C@H](O)[C@H]1O)[C@H]1CC[C@]2(C)[C@@H]1[C@H](O)C[C@@H]1[C@@]3(C)CC[C@H](O)C(C)(C)[C@@H]3[C@@H](O[C@@H]3O[C@H](CO)[C@@H](O)[C@H](O)[C@H]3O)C[C@]12C [Rg1]	Tmax	10

###

# Assay type: in vivo, Balb/c nude mice harboring LoVo xenografts
# reportedConditions: Balb/c nude, mouse, plasma, ip, 10 mL/kg/day
Cmax strictly under 20000 ng/mL means YES; at 20000 ng/mL or over means NO.

compound	categoryLabel
CC(C)=CCC[C@](C)(O[C@@H]1O[C@H](CO)[C@@H](O)[C@H](O)[C@H]1O)[C@H]1CC[C@]2(C)[C@@H]1[C@H](O)C[C@@H]1[C@@]3(C)CC[C@H](O)C(C)(C)[C@@H]3[C@@H](O[C@@H]3O[C@H](CO)[C@@H](O)[C@H](O)[C@H]3O[C@@H]3O[C@@H](C)[C@H](O)[C@@H](O)[C@H]3O)C[C@]12C	YES
CC(C)=CCC[C@](C)(O[C@@H]1O[C@H](CO[C@@H]2O[C@H](CO)[C@@H](O)[C@H](O)[C@H]2O)[C@@H](O)[C@H](O)[C@H]1O)[C@H]1CC[C@]2(C)[C@@H]1[C@H](O)C[C@@H]1[C@@]3(C)CC[C@H](O[C@@H]4O[C@H](CO)[C@@H](O)[C@H](O)[C@H]4O[C@@H]4O[C@H](CO)[C@@H](O)[C@H](O)[C@H]4O)C(C)(C)[C@@H]3CC[C@]12C [Rb1, ginsenoside Rb1]	NO
CC(C)=CCC[C@](C)(O[C@@H]1O[C@H](CO[C@@H]2O[C@@H](CO)[C@H](O)[C@H]2O)[C@@H](O)[C@H](O)[C@H]1O)[C@H]1CC[C@]2(C)[C@@H]1[C@H](O)C[C@@H]1[C@@]3(C)CC[C@H](O[C@@H]4O[C@H](CO)[C@@H](O)[C@H](O)[C@H]4O[C@@H]4O[C@H](CO)[C@@H](O)[C@H](O)[C@H]4O)C(C)(C)[C@@H]3CC[C@]12C	YES
CC(C)=CCC[C@](C)(O[C@@H]1O[C@H](CO)[C@@H](O)[C@H](O)[C@H]1O)[C@H]1CC[C@]2(C)[C@@H]1[C@H](O)C[C@@H]1[C@@]3(C)CC[C@H](O)C(C)(C)[C@@H]3[C@@H](O[C@@H]3O[C@H](CO)[C@@H](O)[C@H](O)[C@H]3O)C[C@]12C	YES
CC(C)=CCC[C@](C)(O[C@@H]1O[C@H](CO)[C@@H](O)[C@H](O)[C@H]1O)[C@H]1CC[C@]2(C)[C@@H]1[C@H](O)C[C@@H]1[C@@]3(C)CC[C@H](O[C@@H]4O[C@H](CO)[C@@H](O)[C@H](O)[C@H]4O[C@@H]4O[C@H](CO)[C@@H](O)[C@H](O)[C@H]4O)C(C)(C)[C@@H]3CC[C@]12C [Rd, ginsenoside Rd]	YES

###

# Type: in vivo, Balb/c nude mice harboring LoVo xenografts
# reportedConditions: Balb/c nude, mouse, plasma, intraperitoneal, 10 mL/kg

compound	Cmax
CC(C)=CCC[C@](C)(O[C@@H]1O[C@H](CO)[C@@H](O)[C@H](O)[C@H]1O)[C@H]1CC[C@]2(C)[C@@H]1[C@H](O)C[C@@H]1[C@@]3(C)CC[C@H](O[C@@H]4O[C@H](CO)[C@@H](O)[C@H](O)[C@H]4O[C@@H]4O[C@H](CO)[C@@H](O)[C@H](O)[C@H]4O)C(C)(C)[C@@H]3CC[C@]12C [Rd, ginsenoside Rd]	~10 µM
